Answer each item with its documented pEC50.
TARGET: MrgC11 (Mus musculus, UniProt Q8CIP3)
Construct: A full-length MrgC11 cDNA was cloned from the newborn DRG cDNA library; expressed in transfected cells
Sequence (Q8CIP3 1-322): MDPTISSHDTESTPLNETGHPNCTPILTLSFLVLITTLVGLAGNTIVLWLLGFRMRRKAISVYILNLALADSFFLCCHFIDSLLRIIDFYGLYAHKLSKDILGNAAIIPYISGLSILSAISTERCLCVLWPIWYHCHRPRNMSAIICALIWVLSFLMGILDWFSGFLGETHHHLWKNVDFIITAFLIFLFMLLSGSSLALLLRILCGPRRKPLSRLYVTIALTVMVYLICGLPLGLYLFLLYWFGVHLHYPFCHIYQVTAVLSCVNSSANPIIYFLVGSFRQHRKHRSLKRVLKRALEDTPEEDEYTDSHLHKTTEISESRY
TEST DETAILS: calcium-mobilization assay (FLEXstation, Fura-2/AM) in HEK-MrgC11 cells
Format: cell-based
Please express pEC50 as -log10 of the molar concentration.

What measured pEC50 goes with N=C(N)NCCC[C@H](N)C(=O)N[C@@H](Cc1ccccc1)C(N)=O [R-Fa] ?
6.34

Name the recorded pEC50 for CC(C)C[C@H](NC(=O)[C@@H](N)Cc1ccccc1)C(=O)N[C@@H](Cc1ccccc1)C(=O)N[C@@H](CCC(N)=O)C(=O)N1CCC[C@H]1C(=O)N[C@@H](CCC(N)=O)C(=O)N[C@@H](CCCN=C(N)N)C(=O)N[C@@H](Cc1ccccc1)C(N)=O [NPFF] .
7.27

* * *

TARGET: MrgC11 (Mus musculus, UniProt Q8CIP3)
Construct: A full-length MrgC11 cDNA was cloned from the newborn DRG cDNA library; expressed in transfected cells
TEST DETAILS: calcium-mobilization assay (FLEXstation, Fura-2/AM) in HEK-MrgC11 cells
Type: cell-based
RECORDED CONDITIONS: Table 1; HEK-MrgC11 cells, FLEXstation assay; means ± SEM, triplicate; Inactive = no activation detected at concentrations up to 10 mM; read-out: EC50 MrgC11
Where no end group is shown, it is not given here.
Assignment: determine reported EC50 for the given substances.
Give the number; nM is assumed, so skip it.

Data request, read-out EC50, for VGRPEWWMDYQKRY-NH2 [BAM-15-amide]
479

Request the reported EC50 associated with SGQSWRPQGRF-NH2 [ACEP-1]
46

Look at this substance and give its reported EC50. MPHSFANLPLRF-NH2 [RFRP-1]
1240

Name the recorded EC50 for TPDINPAWYTGRGIRPVGRF-NH2 [PrRP-20] .
144
